- TEST_DESCRIPTION: Human clinical biocomparison study: oral absorption from grazoprevir and Formulation 3 with and without pH-raising medication
- CONDITION_DETAILS: in vivo, Treatment 1: grazoprevir and Formulation 3 without pH-raising medication, 100 mg grazoprevir/50 mg Compound I, healthy subjects
MEASURED_PARAMETER: AUC(0-inf) (µM·h)
Return type: number; implicit unit µM·h.

# AUC(0-inf) of COC(=O)N[C@H](C(=O)N1CCC[C@H]1c1nc(-c2ccc3c(c2)O[C@@H](c2ccccc2)n2c-3cc3cc(-c4c[nH]c([C@@H]5CCCN5C(=O)[C@@H](NC(=O)OC)C(C)C)n4)ccc32)c[nH]1)C(C)C = 1.97
